Recorded IC50, one value per entry.
target: DRB1*1501 (Homo sapiens, UniProt P01903+P01911); assay: biochemical; assay type: binding

MOLECULE: CC[C@H](C)[C@H](NC(=O)[C@@H](N)CCC(=O)O)C(=O)N[C@H](C(=O)N[C@@H](CC(C)C)C(=O)N[C@@H](Cc1c[nH]cn1)C(=O)N[C@@H](CC(C)C)C(=O)N[C@@H](CCC(=O)O)C(=O)N1CCC[C@H]1C(=O)N[C@@H](CCC(N)=O)C(=O)N[C@@H](CC(N)=O)C(=O)N[C@@H](CCC(=O)O)C(=O)N[C@@H](CC(C)C)C(=O)N[C@@H](CC(=O)O)C(=O)N1CCC[C@H]1C(=O)N[C@H](C(=O)O)C(C)C)C(C)C [Peptide 1543.20]
VAL: > 20 µM

Data request: Quote IC50 with test system DRB1*1501 (Homo sapiens, UniProt P01903+P01911) for CC[C@H](C)[C@H](NC(=O)[C@H](CO)NC(=O)[C@H](CO)NC(=O)[C@H](CC(=O)O)NC(=O)[C@H](C)NC(=O)[C@H](CC(N)=O)NC(=O)[C@@H](NC(=O)[C@H](Cc1ccc(O)cc1)NC(=O)[C@H](C)NC(=O)[C@@H](N)C(C)C)[C@@H](C)CC)C(=O)N[C@@H](CCC(=O)O)C(=O)NCC(=O)N[C@@H](CC(N)=O)C(=O)N[C@@H](Cc1ccc(O)cc1)C(=O)N[C@H](C(=O)O)[C@@H](C)O [Peptide 68.0177]
Data returned: > 20 µM

Data request: Quote IC50 with test system DRB1*1501 (Homo sapiens, UniProt P01903+P01911) for CC[C@H](C)[C@H](NC(=O)CNC(=O)[C@H](CCC(N)=O)NC(=O)[C@H](CC(C)C)NC(=O)[C@@H](NC(=O)CNC(=O)[C@H](CC(N)=O)NC(=O)[C@H](CS)NC(=O)[C@@H](NC(=O)[C@H](CC(C)C)NC(=O)[C@@H]1CCCN1C(=O)CNC(=O)CN)C(C)C)C(C)C)C(=O)N[C@H](C(=O)N[C@@H](CO)C(=O)O)[C@@H](C)O [Peptide 68.0079]
Data returned: > 20 µM

====

target: A*6801 (Homo sapiens, UniProt P04439, A269V/D185E/E176V/E277Q/E87N/F33Y/G231S/I121M/I166T/I218V/L180W/L300P/L318F/N151K/P208A/P217A/Q86R/R169H/T345S); test: biochemical; assay type: binding
No end group written: not given here.
Label key: Satisfied means IC50 under 0.07 µM; Not satisfied means IC50 of 0.07 µM or more.

SEQUENCE_INPUT: TVNEYNTHK [Peptide 1589.36]
QUALITATIVE_LABEL: Satisfied

SEQUENCE_INPUT: AQIEHWKLTR [Peptide 88.0226]
QUALITATIVE_LABEL: Not satisfied

SEQUENCE_INPUT: LLLIRFKCSK [Peptide 88.0191]
QUALITATIVE_LABEL: Not satisfied

SEQUENCE_INPUT: GTRQARKNRR [Peptide 9017.0200]
QUALITATIVE_LABEL: Not satisfied

SEQUENCE_INPUT: SVAALYWYR [Peptide 88.0341]
QUALITATIVE_LABEL: Satisfied

SEQUENCE_INPUT: WTYFDTYMR [Peptide 88.0346]
QUALITATIVE_LABEL: Satisfied

Data request: In the record for TTLEKLTNK [Peptide 78.0283] , is IC50 less than 0.07 µM?
Data returned: Not satisfied

Data request: In the record for TLYAEPPK [Peptide 1556.12] , is IC50 less than 0.07 µM?
Data returned: Not satisfied

Data request: In the record for AAEGVGAASR [Peptide 9017.0187] , is IC50 less than 0.07 µM?
Data returned: Not satisfied

Data request: In the record for SSIVGWPAVR [Peptide 9017.0185] , is IC50 less than 0.07 µM?
Data returned: Satisfied

Data request: In the record for SQRLNACQNK [Peptide 1589.34] , is IC50 less than 0.07 µM?
Data returned: Not satisfied

Data request: In the record for RLCDHIDYWK [Peptide 1589.11] , is IC50 less than 0.07 µM?
Data returned: Not satisfied

Data request: In the record for RAHSSHLR [Peptide 1556.71] , is IC50 less than 0.07 µM?
Data returned: Not satisfied

Data request: In the record for KFYSKISEYR [Peptide 78.0081] , is IC50 less than 0.07 µM?
Data returned: Not satisfied

Data request: In the record for KLVEDRWNK [Peptide 9017.0107] , is IC50 less than 0.07 µM?
Data returned: Not satisfied

Data request: In the record for ATTPIIHLK [Peptide 1589.18] , is IC50 less than 0.07 µM?
Data returned: Satisfied

Data request: In the record for IVIKRRQQK [Peptide 9012.0206] , is IC50 less than 0.07 µM?
Data returned: Not satisfied

Data request: In the record for SQISYWQLIR [Peptide 88.0220] , is IC50 less than 0.07 µM?
Data returned: Not satisfied

Data request: In the record for SFFSRTWCK [Peptide 88.0363] , is IC50 less than 0.07 µM?
Data returned: Satisfied

====

biological target: A31 (A*3101) (Homo sapiens, UniProt P04439, A270S/D185E/E176V/E277Q/F33T/G231S/G80R/H175R/I121M/I218V/I322F/K168Q/L300P/L318F/M331R/P217A/Q94H/R138Q/T323A/T345S/T97I/V358M); experiment: biochemical; format: binding
No end group written: not given here.
RESULT_TYPE: IC50 (nM)
Report the figure in nM without appending any unit label.

Data request: # return recorded IC50 for entry SQWIKYRCSK [Peptide 88.0174]
Data returned: 323

Data request: # return recorded IC50 for entry SFTDLVRNFK [Peptide 88.0143]
Data returned: 47

Data request: # return recorded IC50 for entry AQVLHLLKR [Peptide 88.0364]
Data returned: 98

====

molecular target: A*2601 (Homo sapiens, UniProt P04439, A114D/A173T/A270S/D101N/D185E/E277Q/E87N/F33Y/G231S/I121R/I218V/K168Q/L180W/L300P/L318F/P208A/P217A/Q86R/Q94H/R138Q/S129P/T187R/T323A/T345S/V100A/V358M); experiment: biochemical; format: binding
No end group written: not given here.
RESULT_TYPE: IC50

Would you please look over these solved cases?
SEQUENCE_INPUT: YSDVRKYRY [Peptide 1549.49]
VAL: > 20 µM
--
SEQUENCE_INPUT: RTTQLFEDNY [Peptide 9012.0149]
VAL: > 20 µM
--
SEQUENCE_INPUT: QAEPDTSNY [Peptide 1549.03]
VAL: > 20 µM

# ---- query sequence ----
Data request: # return recorded IC50 for entry LQDKIIDHY [Peptide 1580.21]
Data returned: > 20 µM

====

molecular target: A*0206 (Homo sapiens, UniProt P04439, D140Y/D185E/D98H/E176V/E277Q/F33Y/G131W/G231S/I119V/I121R/I166T/I218V/L300P/L318F/N151K/N90K/P208A/P217A/Q86G/Q94H/R138H/R169H/T345S); test: biochemical; format: binding
pIC50: −log10 of the molar value. No end group written: not given here.
Rule: pIC50 of 6 or more gives MET; anything lower gives NOT MET.

Here's what some known entries look like.
SEQUENCE_INPUT: WQRLLLTASV [Peptide 9013.0115]
QUALITATIVE_LABEL: NOT MET

SEQUENCE_INPUT: QITPLCVTL [Peptide 1516.13]
QUALITATIVE_LABEL: MET

SEQUENCE_INPUT: NLTVNNSGSYT [Peptide 9013.0303]
QUALITATIVE_LABEL: NOT MET

SEQUENCE_INPUT: RTLQQLLFA [Peptide 1525.18]
QUALITATIVE_LABEL: MET

SEQUENCE_INPUT: AQYSWLIDGNV [Peptide 9013.0314]
QUALITATIVE_LABEL: MET

Data request: For this sequence, is measured pIC50 6 or higher? HLQVLFIAKI [Peptide 9013.0244]
Data returned: MET

Data request: For this sequence, is measured pIC50 6 or higher? NLAEGKEVLLL [Peptide 9013.0271]
Data returned: NOT MET

Data request: For this sequence, is measured pIC50 6 or higher? MTRNPPVPV [Peptide 1539.02]
Data returned: NOT MET
